Recorded values, source ChEMBL document CHEMBL1122969.

Listing: No. toxicity/tested of selected compounds
# System: Mus musculus
# MEASUREMENT NOTES: Anticonvulsant activity against neurologic toxicity test at dose 300 mg/kg at 0.5 hr
# Assay type: organism-based
# Design: dose 300 mg/kg
# CONDITION SUMMARY: in vivo

• O=C(O)C1(C(=O)O)CCC2(CCCCCC2)C1 = 0
• O=C(O)C1(C(=O)O)CCC2(CCCCC2)C1 = 0
• O=C(O)C1CCC2(CCCCCC2)C1 (stereo unspecified) = 1
• O=C([O-])C1CCC2(CCCCCC2)C1.[Na+] (stereo unspecified) = 0
• O=C(O)CC1CCC2(CCCCCC2)C1 (stereo unspecified) = 3

Alright, here's another compound for you.
Given item O=C(O)C1CCC2(CCCCC2)C1 (stereo unspecified) , the value recorded as its No. toxicity/tested is 3
